FYI, the data here is from the supplement of paper PMC10567573.

Known protein stability index of a selection of variants
B1: PTPLAD1 (parent)
chain: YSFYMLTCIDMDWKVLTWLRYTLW

- Variants of: B1
- protocolNotes: protein stability index of a GFP-peptide fusion (GPS, HEK-293T) (PSI 1-6); higher = more stable;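 further: lentivirally expressed fusions sorted by FACS into six bins by GFP to DsRed ratio, PSI derived from sequencing read proportions per bin multiplied by bin number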
- conditionSet: c terminus: a fixed tail appended
Kindly provide the number alone.

**Q:** Form field: reported protein stability index of YSFYMLTCIDMDWKVLTWLRYTIW [L23I]
**A:** 2.88

**Q:** Form field: reported protein stability index of YSFYMLTCIDEDWKVLTWLRYTLW [M11E]
**A:** 2.15

**Q:** Form field: reported protein stability index of YSFYMLTCIDMDWNVLTWLRYTLW [K14N]
**A:** 3.02
